# Tested System: BRD4 bromo domain 2 [BRD4(2)] (Homo sapiens, UniProt O60885)
# Construct: N-terminally His6-tagged BRD4(2) (amino acids 357-445)
# Assay Protocol: BRD4(2)/acetylated peptide H4 TR-FRET binding assay
# Applied Conditions: His6-BRD4(2) (aa 357-445) vs acetylated histone H4 peptide
# Experimental: To assess the BRD4(2) binding strength of the substances described in this application, the ability thereof to inhibit the interaction between BRD4(2) and acetylated histone H4 in a dose-dependent manner was quantified. […] In the assay, typically 11 different concentrations of each substance (0.1 nM, 0.33 nM, 1.1 nM, 3.8 nM, 13 nM, 44 nM, 0.15 μM, 0.51 μM, 1.7 μM, 5.9 μM and 20 μM) were analysed as duplicates on the same microtitre plate. […]
Mark Yes only for IC50 values smaller than 80 nM; exact matches and larger values are No.

{"Compound": "CCS(=O)(=O)c1ccc(Oc2ccccc2)c(Nc2ccc3c(n2)N(C2CCOCC2)[C@H](C)C(=O)N3C)c1", "Cat": "Yes"}

Does the reported IC50 of the following compound sit strictly below 80 nM? COc1ccc(S(C)(=O)=O)cc1Nc1ccc2c(n1)N(C1CCN(C(=O)OC(C)(C)C)CC1)[C@H](C)C(=O)N2C
No

Does the reported IC50 of the following compound sit strictly below 80 nM? C[C@@H]1C(=O)N(C)c2ccc(Nc3cccc(S(C)(=N)=O)c3)nc2N1C1CCOCC1 (stereo partly drawn)
No

Does the reported IC50 of the following compound sit strictly below 80 nM? C[C@@H]1C(=O)N(C)c2ccc(Nc3cccc(S(C)(=O)=O)c3)nc2N1C1CCOCC1
No

Does the reported IC50 of the following compound sit strictly below 80 nM? CCOC(=O)N=S(C)(=O)c1cccc(Nc2ccc3c(n2)N(C2CCOCC2)[C@H](C)C(=O)N3C)c1 (mixture of isomers)
No

Does the reported IC50 of the following compound sit strictly below 80 nM? COc1ccc(S(=O)(=O)C(C)C)cc1Nc1ccc2c(n1)N(C1CCN(CC(F)F)CC1)[C@H](C)C(=O)N2C
Yes

Does the reported IC50 of the following compound sit strictly below 80 nM? COc1ccc(S(=O)(=O)C2CC2)cc1Nc1ccc2c(n1)N(C1CCOCC1)[C@H](C)C(=O)N2C
Yes

* * *

# Test system: B16F10 cells
# Assay Protocol: Cell proliferation assay B16F10 (alamarBlue)
# Format: cell-based
# Applied Conditions: Mus musculus, B16-F10, melanoma (BRAF wild-type) cells, 96 hours
Records here are stratified by IC50; strata: low-valued: < 0.05 µM; mid-valued: ≥ 0.05 µM and < 0.2 µM; high-valued: ≥ 0.2 µM

Examples from the recorded data:
{"Molecule": "CC(C)S(=O)(=O)c1cccc(Nc2ccc3c(n2)N(C2CCN(C)CC2)[C@H](C)C(=O)N3C)c1", "Cat": "low-valued"}
{"Molecule": "C[C@@H]1C(=O)N(C)c2ccc(Nc3cccc(S(C)(=O)=O)c3)nc2N1C1CCCCCC1", "Cat": "high-valued"}
{"Molecule": "COc1ccc(S(=O)(=O)C(C)C)cc1Nc1ccc2c(n1)N(C1CCNCC1)[C@H](C)C(=O)N2C", "Cat": "mid-valued"}
{"Molecule": "CC(C)S(=O)(=O)c1ccc(OC(F)(F)F)c(Nc2ccc3c(n2)N(C2CCOCC2)[C@H](C)C(=O)N3C)c1", "Cat": "low-valued"}
{"Molecule": "COc1ccc(S(=O)(=O)C2CCOCC2)cc1Nc1ccc2c(n1)N(C1CCOCC1)[C@H](C)C(=O)N2C", "Cat": "low-valued"}

Classify this molecule: COc1ccc(S(=O)(=O)C(F)(F)F)cc1Nc1ccc2c(n1)N(C1CCOCC1)[C@H](C)C(=O)N2C
mid-valued

Classify this molecule: COc1ccc(S(=O)(=O)C2CC2)cc1Nc1ccc2c(n1)N(C(C)C)[C@H](C)C(=O)N2C
mid-valued

Classify this molecule: CCOC(=O)N=S(C)(=O)c1cccc(Nc2ccc3c(n2)N(C2CCOCC2)[C@H](C)C(=O)N3C)c1 (mixture of isomers)
high-valued

Classify this molecule: C[C@@H]1C(=O)N(C)c2ccc(Nc3ccc4c(c3)S(=O)(=O)CC4)nc2N1C1CCOCC1
high-valued

Classify this molecule: COc1ccc(S(C)(=O)=O)cc1Nc1ccc2c(n1)N(C(C)C)[C@H](C)C(=O)N2C
high-valued

Measured values drawn from patent US20170121322A1 for this set.
